# PROTOCOL DETAILS: melting temperature; melt of duplexes
# ASSAY CONDITIONS: sodium 0.0675 M; strand 1 µM
Recorded measurements of Tm, one per entry
RECORDED METRIC: Tm (°C)

[[record]]
substance = "CGACGTGCGTTATGTGCTG+CAGCACATGAAGCACGTCG ((((((((.(.((((((((+)))))))).).))))))))"
units_text = "°C"
readout_number = 54.8

[[record]]
substance = "CGACGTGCAGAATGTGCTG+CAGCACATGGTGCACGTCG (((((((((..((((((((+))))))))..)))))))))"
units_text = "°C"
readout_number = 52.6

[[record]]
substance = "CGACGTGCAGAATGTGCTG+CAGCACATGGAGCACGTCG ((((((((...((((((((+))))))))...))))))))"
units_text = "°C"
readout_number = 55.6

[[record]]
substance = "CGACGTGCCTCATGTGCTG+CAGCACATGGGGCACGTCG (((((((((.(((((((((+))))))))).)))))))))"
units_text = "°C"
readout_number = 61.2

[[record]]
substance = "CGACGTGCACAATGTGCTG+CAGCACATTCTGCACGTCG (((((((((.(((((((((+))))))))).)))))))))"
units_text = "°C"
readout_number = 51.7

[[record]]
substance = "CGACGTGCCCAATGTGCTG+CAGCACATGTTGCACGTCG ((((((((...((((((((+))))))))...))))))))"
units_text = "°C"
readout_number = 49.4

[[record]]
substance = "CGACGTGCGTAATGTGCTG+CAGCACATGCCGCACGTCG (((((((((..((((((((+))))))))..)))))))))"
units_text = "°C"
readout_number = 54.9

[[record]]
substance = "CGACGTGCTGTATGTGCTG+CAGCACATATGGCACGTCG ((((((((..(((((((((+)))))))))..))))))))"
units_text = "°C"
readout_number = 54.4

[[record]]
substance = "CGACGTGCGAAATGTGCTG+CAGCACATCGAGCACGTCG ((((((((...((((((((+))))))))...))))))))"
units_text = "°C"
readout_number = 55.9

[[record]]
substance = "CGACGTGCTGTATGTGCTG+CAGCACATATTGCACGTCG ((((((((..(((((((((+)))))))))..))))))))"
units_text = "°C"
readout_number = 52.7

[[record]]
substance = "CGACGTGCGTAATGTGCTG+CAGCACATCAAGCACGTCG ((((((((.(.((((((((+)))))))).).))))))))"
units_text = "°C"
readout_number = 53.4

[[record]]
substance = "CGACGTGCTTCATGTGCTG+CAGCACATATAGCACGTCG (((((((((..((((((((+))))))))..)))))))))"
units_text = "°C"
readout_number = 51.5

[[record]]
substance = "CGACGTGCAGGATGTGCTG+CAGCACATAGTGCACGTCG (((((((((..((((((((+))))))))..)))))))))"
units_text = "°C"
readout_number = 50.6

[[record]]
substance = "CGACGTGCCGAATGTGCTG+CAGCACATTCGGCACGTCG (((((((((((((((((((+)))))))))))))))))))"
units_text = "°C"
readout_number = 66.5

[[record]]
substance = "CGACGTGCCGAATGTGCTG+CAGCACATCTTGCACGTCG ((((((((...((((((((+))))))))...))))))))"
units_text = "°C"
readout_number = 48.8

[[record]]
substance = "CGACGTGCTTGATGTGCTG+CAGCACATCGGGCACGTCG ((((((((..(((((((((+)))))))))..))))))))"
units_text = "°C"
readout_number = 56.8

[[record]]
substance = "CGACGTGCGGCATGTGCTG+CAGCACATAGGGCACGTCG ((((((((...((((((((+))))))))...))))))))"
units_text = "°C"
readout_number = 49.5

[[record]]
substance = "CGACGTGCACTATGTGCTG+CAGCACATTAAGCACGTCG ((((((((...((((((((+))))))))...))))))))"
units_text = "°C"
readout_number = 44.3

[[record]]
substance = "CGACGTGCAAAATGTGCTG+CAGCACATACGGCACGTCG ((((((((...((((((((+))))))))...))))))))"
units_text = "°C"
readout_number = 48

[[record]]
substance = "CGACGTGCTTTATGTGCTG+CAGCACATTGCGCACGTCG ((((((((...((((((((+))))))))...))))))))"
units_text = "°C"
readout_number = 46.4

[[record]]
substance = "CGACGTGCGTCATGTGCTG+CAGCACATGATGCACGTCG ((((((((.((((((((((+)))))))))).))))))))"
units_text = "°C"
readout_number = 61.1

[[record]]
substance = "CGACGTGCGGGATGTGCTG+CAGCACATAGTGCACGTCG ((((((((...((((((((+))))))))...))))))))"
units_text = "°C"
readout_number = 47.9

[[record]]
substance = "CGACGTGCTGTATGTGCTG+CAGCACATTCAGCACGTCG ((((((((((.((((((((+)))))))).))))))))))"
units_text = "°C"
readout_number = 57.5

[[record]]
substance = "CGACGTGCGTCATGTGCTG+CAGCACATTAAGCACGTCG ((((((((.(.((((((((+)))))))).).))))))))"
units_text = "°C"
readout_number = 53.3

[[record]]
substance = "CGACGTGCGACATGTGCTG+CAGCACATGGTGCACGTCG ((((((((..(((((((((+)))))))))..))))))))"
units_text = "°C"
readout_number = 57.3

[[record]]
substance = "CGACGTGCGTGATGTGCTG+CAGCACATGGGGCACGTCG ((((((((...((((((((+))))))))...))))))))"
units_text = "°C"
readout_number = 51.2

[[record]]
substance = "CGACGTGCCACATGTGCTG+CAGCACATGCAGCACGTCG ((((((((..(((((((((+)))))))))..))))))))"
units_text = "°C"
readout_number = 53.6

[[record]]
substance = "CGACGTGCTCAATGTGCTG+CAGCACATGGCGCACGTCG ((((((((.(.((((((((+)))))))).).))))))))"
units_text = "°C"
readout_number = 51.8

[[record]]
substance = "CGACGTGCGCGATGTGCTG+CAGCACATACAGCACGTCG ((((((((...((((((((+))))))))...))))))))"
units_text = "°C"
readout_number = 51.7


Reference for the values: the array DNA melting data of Ke et al.
